Ref: patent US9005670B2

Reported melting point values for a set of compounds
parameter: melting point

structure_as_smiles=COC(=O)c1ccc(N2N=C(C)C(=Cc3ccc(-c4cc(C)c(C)cc4[N+](=O)[O-])o3)C2=O)cc1 reported_measurement="214 to 216 °C"
structure_as_smiles=CC1=NN(CCC(=O)O)C(=O)C1=Cc1ccc(-c2cc(C)c(C)cc2[N+](=O)[O-])o1 reported_measurement="189 to 190 °C"
structure_as_smiles=CC1=NN(c2ccc(C(=O)O)cc2)C(=O)/C1=C\c1ccc(-c2cc(C)c(C)cc2CO)o1 reported_measurement="209 to 211 °C"
structure_as_smiles=CC1=NN(c2ccc(C(=O)O)cc2)C(=O)/C1=C\c1ccc(-c2ccccn2)o1 reported_measurement="294 to 296 °C"
structure_as_smiles=COC(=O)c1cc(C)c(C)cc1-c1ccc(/C=C2/CC(=O)N(c3ccc(C(=O)O)cc3)C2=O)o1 reported_measurement="290 to 291 °C"
structure_as_smiles=CCOC(=O)c1cc(C)c(C)cc1-c1ccc(/C=C2\C(=O)N(c3ccc(C(=O)O)cc3)N=C2C)o1 reported_measurement="241 to 243 °C"
